species: Homo sapiens; assay: Metabolism (NADH oxidation) by recombinant human NAD(P)H: quinone oxidoreductase (NQO1) is evaluated.; type: ADME
reported.metric: Metabolism (µM/min/mg)

>>> print(df.to_string())
                            smiles_string  reported_metric  reported_result
0   COCC/N=C1\C=C(O)c2c(c(CO)c(C)n2C)C1=O       Metabolism              0.1
1        COC1=CC(=O)c2c(c(CO)c(C)n2C)C1=O       Metabolism             1.25
2     Cc1c(CO)c2c(n1C)C(=O)C=C(N(C)C)C2=O       Metabolism             0.46
3    Cc1c(CO)c2c(n1C)C(=O)C=C(CN1CC1)C2=O       Metabolism             2.01
4         Cc1cc2c(n1C)C(=O)C=C(N1CC1)C2=O       Metabolism             11.6
5  CCOC(=O)c1c2c(n(C)c1C)C(=O)C=C(OC)C2=O       Metabolism             14.3

---

species on record: Homo sapiens; experiment: Metabolism (NADH oxidation) by recombinant human NAD(P)H: quinone oxidoreductase (NQO1) is evaluated.; assay type: ADME
Outcome: label 1 for Metabolism of at least 0.5 µM/min/mg; label 0 for anything lower.

                            smiles_string  category_label
0            COC1=CC(=O)c2c(cc(C)n2C)C1=O         label 1
1  Cc1c(CO)c2c(n1C)C(=O)C=C(N1CCOCC1)C2=O         label 1
2    Cc1c(CO)c2c(n1C)C(=O)C=C(N1CCC1)C2=O         label 0
3       COC1=CC(=O)c2c(c(C=O)c(C)n2C)C1=O         label 1
4     Cc1c(CO)c2c(n1C)C(=O)C=C(N1CC1)C2=O         label 1

---

test: Selectivity ratio against NSCLC H460 and NSCLC H596 was evaluated; type: functional; set-up: reference not given here
reported.metric: Selectivity ratio

In [3]: df
Out[3]:
                              smiles_string  qualifier_sign  reported_result
0          COC1=CC(=O)c2c(c(CO)c(C)n2C)C1=O               =                1
1    COC1=CC(=O)c2c(c(COC(N)=O)c(C)n2C)C1=O               =              0.3
2  Cc1c(COC(N)=O)c2c(n1C)C(=O)C=C(N1CC1)C2=O               =              1.6
3              COC1=CC(=O)c2c(cc(C)n2C)C1=O               =                1
4       Cc1c(CO)c2c(n1C)C(=O)C=C(N1CC1)C2=O               =              510
5      Cc1c(CO)c2c(n1C)C(=O)C=C(CN1CC1)C2=O               >              220
6           Cc1cc2c(n1C)C(=O)C=C(N1CC1)C2=O               >               26
